# TARGET OR TEST SYSTEM: PDZ protein (GST-PDZ fusion) (Homo sapiens)
# Construct: made in house; host or cells: E. coli (DH5alpha, BL21 or JM109)
# Sequence (Q99767 1-749): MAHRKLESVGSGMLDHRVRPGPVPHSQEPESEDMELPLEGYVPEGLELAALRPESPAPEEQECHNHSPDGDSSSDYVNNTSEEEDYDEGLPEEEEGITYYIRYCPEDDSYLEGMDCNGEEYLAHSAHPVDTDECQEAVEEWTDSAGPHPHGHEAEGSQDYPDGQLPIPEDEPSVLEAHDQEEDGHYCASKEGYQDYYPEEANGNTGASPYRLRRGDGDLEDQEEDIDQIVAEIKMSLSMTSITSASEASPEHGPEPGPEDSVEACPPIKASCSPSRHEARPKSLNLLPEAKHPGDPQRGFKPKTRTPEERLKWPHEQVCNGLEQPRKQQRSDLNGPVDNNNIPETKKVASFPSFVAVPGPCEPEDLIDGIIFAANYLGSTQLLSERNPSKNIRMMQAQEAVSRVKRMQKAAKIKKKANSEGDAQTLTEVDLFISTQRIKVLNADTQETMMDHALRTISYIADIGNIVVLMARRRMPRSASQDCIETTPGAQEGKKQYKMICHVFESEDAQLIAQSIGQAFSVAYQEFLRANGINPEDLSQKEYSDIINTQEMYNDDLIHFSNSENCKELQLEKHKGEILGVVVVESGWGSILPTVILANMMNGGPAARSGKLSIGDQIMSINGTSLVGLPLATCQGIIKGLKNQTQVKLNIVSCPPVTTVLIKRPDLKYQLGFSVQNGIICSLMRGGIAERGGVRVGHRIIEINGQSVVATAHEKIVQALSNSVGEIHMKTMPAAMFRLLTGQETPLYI
# METHOD DESCRIPTION: G' assay (10 uM PL peptide), results of TABLE 7 and TABLE 12
# Type: binding
# PROTOCOL CONDITIONS: PDZ X11-beta, PDZ Domain 2
Ends that are not written are not given here. * marks the point of attachment. Biotin = O=C1N[C@H]2[C@H](CS[C@H]2CCCCC(=O)*)N1
MEASURED PARAMETER: Classification

SUBSTANCE	MEASURED PARAMETER	RESULT VALUE
ALVLIAFCIIRRRPSAYQAL (Biotin-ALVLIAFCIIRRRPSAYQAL) [CD68]	Classification	1 (A450 nm 0-1)
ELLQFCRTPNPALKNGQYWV (Biotin-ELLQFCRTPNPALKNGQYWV)	Classification	2 (A450 nm 1-2)
NGGFAVDKSDTISFTQTSQF [glutamate transporter 3]	Classification	1 (A450 nm 0-1)
A2AA_HUMAN (modified) (Biotin-HDFRRAFKKILARGDRKRIV; not fully specified)	Classification	1 (A450 nm 0-1)

---

# TARGET OR TEST SYSTEM: PDZ protein (GST-PDZ fusion) (Homo sapiens)
# Construct: made in house; host or cells: E. coli (DH5alpha, BL21 or JM109)
# METHOD DESCRIPTION: G' assay (10 uM PL peptide), results of TABLE 7 and TABLE 12
# Assay type: binding
# PROTOCOL CONDITIONS: PDZ DLG1, PDZ Domain 1, 2
Ends that are not written are not given here. * marks the point of attachment. Biotin = O=C1N[C@H]2[C@H](CS[C@H]2CCCCC(=O)*)N1
Listed here are substances together with their documented Classification.
MEASURED PARAMETER: Classification

SUBSTANCE	TARGET OR TEST SYSTEM	RESULT VALUE
SLKPGTVLPPPPYRHRNTVV (Biotin-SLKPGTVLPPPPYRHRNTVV) [ErbB-4 receptor]	PDZ protein (GST-PDZ fusion) (Homo sapiens)	1 (A450 nm 0-1)
SSR4_HUMAN (EALQPEPGRKRIPLTRTTTF)	PDZ protein (GST-PDZ fusion) (Homo sapiens)	1 (A450 nm 0-1)
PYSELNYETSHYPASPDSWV (Biotin-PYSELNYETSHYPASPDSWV) [catenin - delta 2]	PDZ protein (GST-PDZ fusion) (Homo sapiens)	3 (A450 nm 2-3)
GGGGGSGGGGGSGIESVKI [GLUR2 (glutamate receptor 2-modified)]	PDZ protein (GST-PDZ fusion) (Homo sapiens)	2 (A450 nm 1-2)
RNIEEVYVGGKQVVPFSSSV (Biotin-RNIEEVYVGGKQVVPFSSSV) [Nedasin (s-form)]	PDZ protein (GST-PDZ fusion) (Homo sapiens)	3 (A450 nm 2-3)
APC—adenomatous polyposis coli protein (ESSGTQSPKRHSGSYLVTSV)	PDZ protein (GST-PDZ fusion) (Homo sapiens)	5 (A450 nm of 4 more than 2× repeated)
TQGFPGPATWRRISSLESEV	PDZ protein (GST-PDZ fusion) (Homo sapiens)	5 (A450 nm of 4 more than 2× repeated)
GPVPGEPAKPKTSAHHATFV (Biotin-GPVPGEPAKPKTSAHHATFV)	PDZ protein (GST-PDZ fusion) (Homo sapiens)	1 (A450 nm 0-1)
GGEDFKTTNPSKQFDKNAYV (Biotin-GGEDFKTTNPSKQFDKNAYV) [claudin 10]	PDZ protein (GST-PDZ fusion) (Homo sapiens)	1 (A450 nm 0-1)
